The reported measurements were obtained from the supplement of paper PMC10567573.

Listing of entries alongside the reported protein stability index.
B1: WEE1 (parent)
chain: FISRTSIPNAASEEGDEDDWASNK

Variants of: B1
Assay: protein stability index of a GFP-peptide fusion (GPS, HEK-293T) (PSI 1-6); higher = more stable;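 also: lentivirally expressed fusions sorted by FACS into six bins by GFP to DsRed ratio, PSI derived from sequencing read proportions per bin multiplied by bin number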
Settings: c terminus: a fixed tail appended
Would you mind answering with just the numeric figure?

Example variants with recorded protein stability index:
[
  {
    "Variant Designation": "S3L",
    "protein stability index": 3.95
  },
  {
    "Variant Designation": "E17V",
    "protein stability index": 3.35
  },
  {
    "Variant Designation": "I2G",
    "protein stability index": 5.75
  }
]

Recorded result, S12Y , protein stability index: 3.76

Sample A10R ; protein stability index observed: 3.97

Looking up E14S , I see its protein stability index listed as 3.66

Query I2Y yields protein stability index of 4.95

Quick note, protein stability index for N23L landed at 3.45

Notebook: E17I , protein stability index read as 3.8

S6T yielded protein stability index of 3.73

Noted for D18Q : its protein stability index reads 3.56

According to the records, this variant W20T displays protein stability index of 4.46
